Tested on: VEGF-stimulated ADSC/ECFC co-culture, nuclear area imaging
Test: nuclear area loss in endothelial-stromal co-culture, dose response, cell-based, VEGF stimulation, IC50 (AID 1117324)
Activity calls are given as the source filed them. How the calls were made is not given here.
Outcome field: choose from active, inactive

[
  {
    "compound": "S=C=Nc1ccc(N=C=S)cc1",
    "assigned category": "inactive"
  },
  {
    "compound": "Cc1ccc(Nc2c(F)cccc2Cl)c(CC(=O)O)c1",
    "assigned category": "inactive"
  },
  {
    "compound": "O=C(OCCO)c1ccccc1O",
    "assigned category": "inactive"
  }
]

### Prompt Per the assay record, what outcome was assigned to Oc1c(I)cc(I)c2cccnc12 ?
### Response inactive

### Prompt Per the assay record, what outcome was assigned to CCN(CC)CCCC(C)Nc1c2ccc(Cl)cc2nc2ccc(OC)cc12 (configuration not stated) ?
### Response inactive

### Prompt Per the assay record, what outcome was assigned to CC(=O)[O][Hg][c]1ccccc1 ?
### Response active

### Prompt Per the assay record, what outcome was assigned to O=C(CBr)Nc1ccc(Cl)cc1C(=O)c1ccccc1F ?
### Response inactive

### Prompt Per the assay record, what outcome was assigned to COc1cccc(CCc2ccccc2OCC(CN(C)C)OC(=O)CCC(=O)O)c1 (configuration not stated) ?
### Response inactive

### Prompt Per the assay record, what outcome was assigned to Cc1nc2ccc(CN(C)c3ccc(C(=O)N[C@@H](CCC(=O)O)C(=O)O)s3)cc2c(=O)[nH]1 ?
### Response inactive

### Prompt Per the assay record, what outcome was assigned to CCCCCCCCCCCC[N+](C)(C)Cc1ccccc1 ?
### Response inactive

### Prompt Per the assay record, what outcome was assigned to N[C@@H](Cc1ccc(N(CCCl)CCCl)cc1)C(=O)O ?
### Response inactive

### Prompt Per the assay record, what outcome was assigned to Cc1ccc(C(=O)Oc2ccc(C(O)CNC(C)(C)C)cc2OC(=O)c2ccc(C)cc2)cc1 (configuration not stated) ?
### Response inactive

### Prompt Per the assay record, what outcome was assigned to C[C@@H]1C[C@H]2[C@@H]3CCC4=CC(=O)C=C[C@]4(C)[C@@]3(Cl)[C@@H](O)C[C@]2(C)[C@@]1(OC(=O)c1ccco1)C(=O)CCl ?
### Response inactive

### Prompt Per the assay record, what outcome was assigned to CCCCN1CCCC1C(=O)Nc1c(C)cc(C)cc1C (configuration not stated) ?
### Response inactive

---

System: VEGF-stimulated ADSC/ECFC co-culture, nuclear area imaging
Assay: nuclear area loss in endothelial-stromal co-culture, dose response, cell-based, VEGF stimulation, IC50 (AID 1117324)
Calls of active or inactive are those of the source. The rule behind the calls is not given here.
For each of the compounds below, state its IC50.

Use the examples below as a reference point.
[
  {
    "compound": "CC[N+](CC)(CC)CCOc1ccc(/C=C/c2ccccc2)cc1",
    "IC50": "> 10 µM (inactive)"
  },
  {
    "compound": "O=C(Nc1ccc(Br)cc1)c1cc(Br)cc(Br)c1O",
    "IC50": "> 10 µM (inactive)"
  },
  {
    "compound": "Oc1ccc(/C=C/c2cc(O)cc(O)c2)cc1",
    "IC50": "> 10 µM (inactive)"
  }
]

### Prompt Provide measured IC50 on VEGF-stimulated ADSC/ECFC co-culture, nuclear area imaging for Cc1cc(C(C#N)c2ccc(Cl)cc2)c(Cl)cc1NC(=O)c1cc(I)cc(I)c1O (centres undefined) please.
### Response 7.36 µM (inactive)
